B1: SCNN1D (parent)
chain: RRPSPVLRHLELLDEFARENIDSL

Variants of: B1
MEASUREMENT NOTES: protein stability index of a GFP-peptide fusion (GPS, HEK-293T) (PSI 1-6); higher = more stable;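 note: lentivirally expressed fusions sorted by FACS into six bins by GFP to DsRed ratio, PSI derived from sequencing read proportions per bin multiplied by bin number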
ASSAY CONTEXT: c terminus: a fixed tail appended
PROPERTY: protein stability index
Reply: number alone, nothing else.

Record excerpt, results attached:
RRPMPVLRHLELLDEFARENIDSL [S4M] : 2.88
RIPSPVLRHLELLDEFARENIDSL [R2I] : 2.6
RRPSPVLRHLELLDEFARENIDSS [L24S] : 3.04
RRPSPVLRHWELLDEFARENIDSL [L10W] : 3.23
RRPSPVLRHLELLDEFFRENIDSL [A17F] : 2.24

Turning now to a further variant:
Consider the variant RRPSPVLRHLELQDEFARENIDSL [L13Q] and give its measured protein stability index.
3.78

Source: the supplement of paper PMC10567573
